Source listed as patent US9994617B2.

# TGT: human plasma kallikrein (hPK) (Homo sapiens, UniProt P03952)
# Sequence (P03952 20-638): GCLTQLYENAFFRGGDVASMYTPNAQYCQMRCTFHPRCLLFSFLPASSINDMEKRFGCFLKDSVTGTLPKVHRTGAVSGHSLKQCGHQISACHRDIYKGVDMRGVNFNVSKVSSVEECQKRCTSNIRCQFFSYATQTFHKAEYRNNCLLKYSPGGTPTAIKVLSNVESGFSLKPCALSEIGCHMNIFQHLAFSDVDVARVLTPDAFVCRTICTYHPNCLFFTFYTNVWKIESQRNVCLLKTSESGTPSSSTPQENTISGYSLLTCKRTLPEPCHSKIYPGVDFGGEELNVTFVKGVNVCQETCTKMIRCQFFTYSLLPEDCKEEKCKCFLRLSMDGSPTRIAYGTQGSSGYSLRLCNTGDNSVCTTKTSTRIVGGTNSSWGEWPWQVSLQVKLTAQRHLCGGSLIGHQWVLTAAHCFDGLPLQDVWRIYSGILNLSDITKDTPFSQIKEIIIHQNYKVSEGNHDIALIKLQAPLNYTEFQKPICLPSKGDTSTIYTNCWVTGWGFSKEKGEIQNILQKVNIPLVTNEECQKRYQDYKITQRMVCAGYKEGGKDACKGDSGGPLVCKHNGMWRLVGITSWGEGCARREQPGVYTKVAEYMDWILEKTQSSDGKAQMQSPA
# METHOD SUMMARY: Enzyme inhibition assay, human plasma kallikrein
Numbered stars: 1 amine (or outer) side, 2 acyl side, 3 side chain; on linkers, the order of the positions; unused ones are H or OH. Bridge positions count the residues as written; N and C are the ends. Peptide text beside a SMILES is read from it. TBMB = c1c(C[*:1])cc(C[*:3])cc1C[*:2]
Collected pKi values appear next to each entry.
// scale note: pKi = -log10(conc_M); give the bare number

Worked set:
{"columns": ["COMPOUND", "OBSERVED"],
 "data": [
  ["CC(C)C[C@@H]1NC(=O)[C@H](CO)NC(=O)[C@H]([C@@H](C)O)NC(=O)[C@H]([C@@H](C)O)NC(=O)[C@H](CC(C)C)NC(=O)[C@@H]2CSCc3cc(cc(c3)CSC[C@@H](C(=O)N[C@@H](C)C(N)=O)NC1=O)CSC[C@H](NC(=O)[C@H](C)N)C(=O)N[C@@H](CCCNC(=N)N)C(=O)N[C@@H](Cc1c[nH]c3ccccc13)C(=O)N1CCC[C@H]1C(=O)N[C@@H](C)C(=O)N[C@@H](CCCNC(=N)N)C(=O)N2 [Peptide 06-59] (H-ACRWPARCLTTSLCA-NH2; linker 2-8-14 via TBMB)", 9.30],
  ["CC(=O)N[C@H]1CSCc2cc3cc(c2)CSC[C@H](NC(=O)[C@H](CNC(=N)N)NC(=O)[C@H](C)NC(=O)[C@@H]2CCCN2C(=O)[C@H](Cc2c[nH]c4ccccc24)NC(=O)[C@H](CO)NC1=O)C(=O)N[C@@H](CC(C)C)C(=O)N[C@@H](Cc1c[nH]cn1)C(=O)N[C@@H](CCC(N)=O)C(=O)N[C@@H](CC(=O)O)C(=O)N[C@@H](CC(C)C)C(=O)N[C@H](C(N)=O)CSC3", 5.75]
]}

## Task Item CC(C)[C@@H]1NC(=O)[C@H](CCCNC(=N)N)NC(=O)[C@@H]2CSCc3cc(cc(c3)CSC[C@@H](C(=O)N[C@@H](C)C(N)=O)NC(=O)[C@H](CC(N)=O)NC1=O)CSC[C@H](NC(=O)[C@H](C)N)C(=O)N[C@@H](Cc1ccccc1)C(=O)N[C@@H](CC(N)=O)C(=O)N[C@@H](CCCCN)C(=O)N2 [Peptide 06-64] (H-ACFNKCRVNCA-NH2; linker 2-6-10 via TBMB) : provide pKi
## Result 8.32
